- Tested on: MDA-MB-468 breast
- assayNotes: NCI tumour cell line growth inhibition, 48 h
This listing pairs compounds with measured GI50.

>>> df
                                   compound  measure     reported
0  CN(C)CCCN=c1cc2c(=O)n(CCCN(C)C)c(=O)c3c(NCCCN(C)C)cc4c(O)n(CCCN(C)C)c(=O)c1c4c3-2     GI50      1300 nM
1  COc1cc(C)[nH]c(=O)c1CN1CCc2c(Cl)cc([C@H](OC)C3COC3)c(Cl)c2C1=O     GI50  > 100000 nM
2  N#C/C(=C/C=C/c1ccccc1)S(=O)c1ccccc1 (stereo not given)     GI50       274 nM
3  CCC(c1ccc(OC)cc1)C(CC)c1ccc(O)c(CN2CCCC2)c1 (stereo not given)     GI50      1620 nM
4  NC(=O)c1cc(Cl)ccc1NC(=O)c1ccccc1-c1ccccc1     GI50       448 nM

Sample "CNC(=O)c1cncc(/C=C/c2c(C)cccc2C)c1" — what was its GI50?
> 22700 nM

Which GI50 value belongs to "COc1cc([C@@H]2c3cc4c(cc3[C@H](OC(C)=O)[C@H]3COC(=O)[C@H]23)OCO4)cc(OC)c1OC" ?
29.5 nM

Which GI50 is listed for "Cc1cccc2c1O/C(=C\c1ncc([N+](=O)[O-])n1C)C2=O" ?
1410 nM

Reported GI50 for "COc1ccc([C@@H]2[C@@H](O)C(=O)N2c2cc(OC)c(OC)c(OC)c2)cc1" : what is it?
24.3 nM

Request the reported GI50 associated with O=C1CCC2=C3C4CCCCC4C(=O)C4CCCC(OC2C1)C34 (stereo not given)
1870 nM

---

- Tested on: MDA-MB-468 breast
- assayNotes: NCI tumour cell line growth inhibition, 48 h
The following compounds are listed with their measured TGI values.

Report TGI for "O=C1/C(=C/c2ccccc2Br)COc2ccc(O)c(O)c21" please.
3.94 µM

Bench note: what TGI did "N/C(=N\c1nc2ccccc2s1)NC(=O)Nc1ccccc1Cl" show?
5.92 µM

Could you tell me which TGI is on file for "COc1cc([C@@H]2c3cc4c(cc3[C@H](OC(C)=O)[C@H]3COC(=O)[C@H]23)OCO4)cc(OC)c1OC" ?
> 100 µM

Entry under review: "O=C(O[C@H]1CN[C@H](C#Cc2cc3ncnc(Nc4ccc(OCc5cccc(F)c5)c(Cl)c4)c3s2)C1)N1CCOCC1" . Reported TGI?
4.78 µM

Name the reported TGI value associated with the compound "COc1cc(C)[nH]c(=O)c1CN1CCc2c(Cl)cc([C@H](OC)C3COC3)c(Cl)c2C1=O"
> 100 µM

---

Recorded measurements of TGI, one per entry
- Tested on: MDA-MB-468 breast
- assayNotes: NCI tumour cell line growth inhibition, 48 h

Use these answered entries as a reference point.
compound	TGI
CCn1cc(C(=O)N/N=C/c2cccc(F)c2)c(=O)c2cc(F)c(N3CCNC(C)C3)c(F)c21 (configuration not stated)	3.18 µM
COc1ccc(-c2csc(NC(=O)N3CCN(c4cc5c(cc4F)c(=O)c(C(=O)O)cn5C4CC4)CC3)n2)cc1	8.13 µM
CCCCNC(=O)Oc1ccc2c(=O)c3sc4c(=O)c5ccccc5c(=O)c4c3c(=O)c2c1	3.39 µM

What reported TGI corresponds to "O=c1ccccc(-c2ccc(-c3ccco3)cc2)c1O" on MDA-MB-468 breast?
3.3 µM

Lab request: please report TGI under test system MDA-MB-468 breast for "COc1cc(/C=C2\CN(S(=O)(=O)c3ccc(C)cc3)C/C(=C\c3cc(CN4CCCCC4)c(O)c(OC)c3)C2=O)cc(CN2CCCCC2)c1O"
3.99 µM

Query TGI on MDA-MB-468 breast for CC1OC(O[C@H]2/C=C/C=C/C=C/C=C/C=C/C=C/C=C/[C@H](C)[C@@H](O)[C@@H](C)[C@H](C)OC(=O)C[C@H](O)C[C@H](O)CC[C@@H](O)[C@H](O)C[C@H](O)C[C@]3(O)C[C@H](O)[C@@H](C(=O)O)[C@H](C2)O3)C(O)C(N)C1O (some centres not stated)
> 100 µM

Record "O=C1Nc2ccc(F)cc2/C1=C/c1cccc(OCc2ccccc2)c1" : what is its TGI with MDA-MB-468 breast?
23.6 µM
